# Ki values compiled below
system.under.test: human RAR-related orphan receptor gamma (hRORg) (Homo sapiens (Human))
Sequence (P51449 whole entry): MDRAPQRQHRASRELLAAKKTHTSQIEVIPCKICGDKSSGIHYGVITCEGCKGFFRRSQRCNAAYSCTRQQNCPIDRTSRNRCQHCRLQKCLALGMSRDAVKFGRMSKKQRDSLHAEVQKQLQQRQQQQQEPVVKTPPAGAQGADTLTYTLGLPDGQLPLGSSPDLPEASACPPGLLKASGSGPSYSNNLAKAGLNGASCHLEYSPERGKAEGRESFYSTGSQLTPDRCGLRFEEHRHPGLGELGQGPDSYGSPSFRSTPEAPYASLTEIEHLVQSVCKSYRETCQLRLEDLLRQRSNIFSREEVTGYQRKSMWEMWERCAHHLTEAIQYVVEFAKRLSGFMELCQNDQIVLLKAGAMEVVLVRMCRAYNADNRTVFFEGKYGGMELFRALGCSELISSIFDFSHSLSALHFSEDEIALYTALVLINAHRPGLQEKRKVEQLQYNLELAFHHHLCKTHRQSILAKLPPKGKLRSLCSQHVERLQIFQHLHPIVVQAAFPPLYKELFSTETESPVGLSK
Write it as a number; the unit nM goes unstated.

Example results:
- molecule: "CCS(=O)(=O)c1ccc(CNC(=O)c2cc3c(s2)C2(CCN([C@H](C)c4cnc(C(F)(F)F)nc4)CC2)OC(C)(C)C3)nc1"
  units.text: "nM"
  value: 6.96
- molecule: "CCS(=O)(=O)c1ccc(CNC(=O)c2cc3c(s2)C2(CCN([C@H](C)c4cnc(C(F)(F)F)nc4)CC2)OC2(CC2)C3)nc1"
  units.text: "nM"
  value: 6.4

Entry CCS(=O)(=O)c1ccc(CNC(=O)c2cc3c(s2)C2(CCN(C(C)c4ccc(C#N)cc4)CC2)OC2(CC2)C3)cc1 (single isomer, unassigned; isomer 1) , Ki reported as 6

====

# IC50 values compiled below
system.under.test: human RORg ligand binding domain fused to yeast GAL4 DNA binding domain (Homo sapiens (Human), UniProt P51449)
Sequence (P51449 269-508): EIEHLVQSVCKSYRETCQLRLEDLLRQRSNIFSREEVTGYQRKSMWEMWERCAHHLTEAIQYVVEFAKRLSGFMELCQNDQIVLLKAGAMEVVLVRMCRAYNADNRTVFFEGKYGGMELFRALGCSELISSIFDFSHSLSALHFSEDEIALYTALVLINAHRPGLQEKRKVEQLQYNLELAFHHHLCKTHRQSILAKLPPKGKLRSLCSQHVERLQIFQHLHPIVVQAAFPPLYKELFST
test.details: HEK293 RORg GAL4 Receptor-Reporter Assay
condition.description: HEK293 cells, RORg-GAL4/pGL4.31 luciferase reporter, 18 hours; mean ± standard deviation; read-out: hIC50
Write it as a number; the unit µM goes unstated.

- compound: "CCS(=O)(=O)c1ccc(CNC(=O)c2cc3c(s2)C2(CCN(C(C)c4ccc(C#N)cc4)CC2)OC2(CC2)C3)cc1 (single isomer, unassigned; isomer 1)"
  value: 0.0344

Entry CCS(=O)(=O)c1ccc(CNC(=O)c2cc3c(s2)C2(CCN([C@H](C)c4cnc(C(F)(F)F)nc4)CC2)OC2(CC2)C3)nc1 , IC50 reported as 0.0223

Entry CCS(=O)(=O)c1ccc(CNC(=O)c2cc3c(s2)C2(CCN([C@H](C)c4cnc(C(F)(F)F)nc4)CC2)OC(C)(C)C3)nc1 , IC50 reported as 0.0167
